Each entry below carries its recorded MIC.
Tested on: Enterococcus faecalis
experiment notes: Antibacterial activity against vancomycin-resistant Enterococcus faecalis ATCC 51575 after 18 hrs by broth dilution method
Format: functional
conditions: ATCC 51575, 18 h

Reference set, count: 2
compound	target entity	experimental endpoint	reported value
CC1CN(c2c(F)cc3c(=O)ccn(C4CC4)c3c2F)CCN1 (stereo unspecified)	Enterococcus faecalis	MIC	> 80 µg/mL
O=CN1CCN(c2cc3c(cc2F)c(=O)ccn3C2CC2)CC1	Enterococcus faecalis	MIC	> 80 µg/mL

# value lookup — system Enterococcus faecalis, readout MIC, item CCn1ccc(=O)c2cc(F)c(N3CCN(C=O)CC3)cc21
> 80 µg/mL

# value lookup — system Enterococcus faecalis, readout MIC, item CCn1ccc(=O)c2cc(F)c(N3CCNCC3)cc21
> 80 µg/mL

# value lookup — system Enterococcus faecalis, readout MIC, item CCN1CCN(c2cc3c(cc2F)c(=O)c(C(=O)O)cn3C2CC2)CC1
0.625 µg/mL

# value lookup — system Enterococcus faecalis, readout MIC, item O=CN1CCN(c2cc3c(cc2F)c(=O)c(C(=O)O)cn3C2CC2)CC1
2.5 µg/mL

###

Tested on: Enterococcus faecalis
experiment notes: Antibacterial activity against vancomycin-resistant Enterococcus faecalis ATCC 51575 after 18 hrs by broth dilution method
Format: functional
conditions: ATCC 51575, 18 h
experimental endpoint: MIC

Field request: MIC | item: CCn1cc(C(=O)O)c(=O)c2cc(F)c(N3CCNCC3)cc21
2.5 µg/mL

Field request: MIC | item: CCN1CCN(c2cc3c(cc2F)c(=O)ccn3C2CC2)CC1
> 80 µg/mL

Field request: MIC | item: O=c1ccn(C2CC2)c2cc(N3CCNCC3)c(F)cc12
> 80 µg/mL

Field request: MIC | item: CC1CN(c2c(F)cc3c(=O)c(C(=O)O)cn(C4CC4)c3c2F)CCN1 (stereo not given)
0.625 µg/mL

Field request: MIC | item: O=C(O)c1cn(C2CC2)c2cc(N3CCNCC3)c(F)cc2c1=O
0.625 µg/mL

###

Tested on: Staphylococcus aureus
experiment notes: Antibacterial activity against methicillin-resistant Staphylococcus aureus 1094 after 18 hrs by broth dilution method
Format: functional
conditions: Staphylococcus aureus, 1094, 18 h
experimental endpoint: MIC (µg/mL)
// note: answer is a bare numeric in µg/mL

compound	unit descriptor	reported value
O=C(O)c1cn(C2CC2)c2cc(N3CCNCC3)c(F)cc2c1=O	µg/mL	20
CCN1CCN(c2cc3c(cc2F)c(=O)c(C(=O)O)cn3C2CC2)CC1	µg/mL	5
CCn1cc(C(=O)O)c(=O)c2cc(F)c(N3CCNCC3)cc21	µg/mL	40
O=CN1CCN(c2cc3c(cc2F)c(=O)c(C(=O)O)cn3C2CC2)CC1	µg/mL	40

Now look at this entry.
Field request: MIC | item: CC1CN(c2c(F)cc3c(=O)c(C(=O)O)cn(C4CC4)c3c2F)CCN1 (stereo unspecified)
10

###

Each entry below carries its recorded MIC.
System: Klebsiella pneumoniae
experiment notes: Antibacterial activity against Klebsiella pneumoniae ATCC 13882 after 18 hrs by broth dilution method
Assay type: functional
conditions: ATCC 13882, 18 h
// note: answer is a bare numeric in mg/L

molecule smiles	target entity	unit descriptor	MIC
CCn1cc(C(=O)O)c(=O)c2cc(F)c(N3CCNCC3)cc21	Klebsiella pneumoniae	mg/L	0.117

Now look at this entry.
Field request: MIC | item: CCN1CCN(c2cc3c(cc2F)c(=O)c(C(=O)O)cn3C2CC2)CC1
0.098
